# Method: Volume of distribution at steady state in rat at 1 mg/kg, iv or 5 mg/kg, po
# Format: ADME, organism-based
# Recorded Conditions: in vivo, read-out: Vdss
Measurement Kind: Vd
Please answer in the form of a number followed by its unit of measurement.

Look up and state reported Vd for Nc1cncc(-c2cn3ccnc3c(Nc3ccc(N4CCN(C5COC5)CC4)cc3)n2)n1 [LANRAPLENIB]
2.5 L/kg

---

# Method: Solubility of compound at pH 2
# Type: physicochemical
# Recorded Conditions: buffer
Hi there, I'd appreciate the recorded solubility for every entry that follows.
Give bare numbers, in µM.

Some molecules with recorded solubility:
- Molecule: "c1cn2cc(-c3ccc4cn[nH]c4c3)nc(Nc3ccc(N4CC5(COC5)C4)cc3)c2n1"
  solubility [µM]: 88
- Molecule: "c1cn2cc(-c3ccc4cn[nH]c4c3)nc(Nc3ccc(N4CC5(CCOCC5)C4)cc3)c2n1"
  solubility [µM]: 77
- Molecule: "c1cn2cc(-c3ccc4cn[nH]c4c3)nc(Nc3ccc(N4CC5COCC5C4)cc3)c2n1 (configuration not stated)"
  solubility [µM]: 24
- Molecule: "CN(C)C[C@@H]1CN(c2ccc(Nc3nc(-c4ccc5cn[nH]c5c4)cn4ccnc34)cc2)CCO1"
  solubility [µM]: 90
- Molecule: "O=S1(=O)CCN(c2ccc(Nc3nc(-c4ccc5cn[nH]c5c4)cn4ccnc34)cc2)CC1"
  solubility [µM]: 26
- Molecule: "c1cn2cc(-c3ccc4cn[nH]c4c3)nc(Nc3ccc(N4C[C@H]5CC[C@@H](C4)O5)cc3)c2n1"
  solubility [µM]: 24

List the reported solubility of each molecule below.
1. c1cn2cc(-c3ccc4cn[nH]c4c3)nc(Nc3ccc(N4CCOCC4)cc3)c2n1
2. c1cn2cc(-c3ccc4c(n3)NCCO4)nc(Nc3ccc(N4CCN(C5COC5)CC4)cc3)c2n1
3. OC1CN(c2ccc(Nc3nc(-c4ccc5cn[nH]c5c4)cn4ccnc34)cc2)C1

1: 13; 2: 99; 3: 78

List the reported solubility of each molecule below.
1. OC[C@H]1CN(c2ccc(Nc3nc(-c4ccc5cn[nH]c5c4)cn4ccnc34)cc2)CCO1
2. C[C@@H]1CN(c2ccc(Nc3nc(-c4ccc5cn[nH]c5c4)cn4ccnc34)cc2)C[C@H](C)O1

1. 87
2. 86

---

# Method: Half life in monkey at 1 mg/kg, iv or 5 mg/kg, po
# Type: ADME, organism-based, Macaca mulatta
# Recorded Conditions: rhesus monkey, in vivo
Measurement Kind: half-life (h)
One number for each entry, in h.

Look up and state reported half-life for `Nc1cncc(-c2cn3ccnc3c(Nc3ccc(N4CCN(C5COC5)CC4)cc3)n2)n1`
2.3

---

# Method: Solubility of compound at pH 2
# Type: physicochemical
# Recorded Conditions: buffer
Measurement Kind: solubility (µM)
Give bare numbers, in µM.

Some compounds with recorded solubility:
- Smiles Code: "OC1CCN(c2ccc(Nc3nc(-c4ccc5cn[nH]c5c4)cn4ccnc34)cc2)CC1"
  solubility, µM: 84
- Smiles Code: "c1cn2cc(-c3ccc4cn[nH]c4c3)nc(Nc3ccc(N4C[C@@H]5C[C@H]4CO5)cc3)c2n1"
  solubility, µM: 79
- Smiles Code: "Nc1cncc(-c2cn3ccnc3c(Nc3ccc(N4CCN(C5COC5)CC4)cc3)n2)c1"
  solubility, µM: 98
- Smiles Code: "c1cn2cc(-c3ccc4cn[nH]c4c3)nc(Nc3ccc(N4CC5CC(C4)O5)cc3)c2n1"
  solubility, µM: 25

Proceed to the following item.
Look up and state reported solubility for `c1cn2cc(-c3ccc4cc[nH]c4n3)nc(Nc3ccc(N4CCN(C5COC5)CC4)cc3)c2n1`
99
